- method-summary: gradient 5% acetonitrile 3 min, to 50% in 2 min, to 85% in 15 min, held 3 min, 100 µL/min
- condition-label: column: Zorbax Extend-C18 2.1 x 50 mm; eluents: water / acetonitrile, 0.1% formic acid
recorded-endpoint: RP-LC retention time (s)

Example entries and their recorded answers appear below.
> print(dat)
                              record.smiles     recorded.endpoint  readout.number
1  COc1ccc(Cl)cc1C(=O)NC1CCN(c2cc(-c3cccs3)[nH]n2)CC1  RP-LC retention time             865
2  Cc1cccc(N2CCN(C(=O)c3csc(C(=O)NC4CC4)n3)CC2)c1  RP-LC retention time             809
3   Fc1ccc(OCc2nnc3sc(-c4cccc(F)c4)nn23)cc1  RP-LC retention time             947

I: O=C(Nc1cc(F)ccc1F)N1CCC(N2CCN(Cc3ccc(F)cc3)C2=O)CC1
II: CCN(CC)CCNC(=O)c1cc2n(n1)CCCN(Cc1ccc(F)cc1)C2=O
**Q:** Input pair: I , II . Output: entry with lower RP-LC retention time. Write down the label attached to your selection.
**A:** II
(II: 556 s, I: 850 s)

Values were extracted from the METLIN SMRT retention time set (Domingo-Almenara et al. 2019).
